All figures here come from PubChem BioAssay (NCI).

- System: OVCAR-4 ovarian
- METHOD NOTES: NCI tumour cell line growth inhibition, 384-well format; in the data active = GI50 below about 0.43 µM; inactive = the rest
Use one of these outcomes when replying: active, inactive

COMPOUND: C=CCN(/C=C1\C(=O)O[C@H](COC)[C@@]2(C)C1=C(O)C(=O)C1=C2[C@H](OC(C)=O)C[C@]2(C)C(=O)CC[C@@H]12)CC=C
CATEGORY: inactive
//
COMPOUND: Cn1cc(C[C@@H](N)C(=O)O)c2ccccc21
CATEGORY: inactive
//
COMPOUND: CNC(C)C(=O)N[C@H](C(=O)N1CCC[C@@H]1CN(CCc1ccccc1)C(=O)C(F)(F)F)[C@H](C)OCC#CC#CCO[C@H](C)[C@H](NC(=O)[C@H](C)NC)C(=O)N1CCC[C@H]1CN(CCc1ccccc1)C(=O)C(F)(F)F (some centres undefined)
CATEGORY: active

Prompt: What is the recorded call for this compound in the test? O=C1c2ccccc2C(=O)C(Cl)C1Cl (centres undefined)
Response: inactive

----------
- System: IGROV1 ovarian
- METHOD NOTES: NCI tumour cell line growth inhibition, 384-well format
PROPERTY MEASURED: TGI (µM)
Entry rule: numbers only, all in µM.

SMILES INPUT: C=CCN(/C=C1\C(=O)O[C@H](COC)[C@@]2(C)C1=C(O)C(=O)C1=C2[C@H](OC(C)=O)C[C@]2(C)C(=O)CC[C@@H]12)CC=C
PROPERTY MEASURED: TGI
MEASUREMENT: 5.26

# ---- query compound ----
Entry CC[C@H](C)n1cc(C)c2c(C(=O)NCc3c(C)cc(C)[nH]c3=O)cc(-c3ccc(N4CCNCC4)nc3)cc21 ; assay system IGROV1 ovarian; TGI recorded at 3.67

----------
- System: SK-MEL-5 melanoma
- METHOD NOTES: NCI tumour cell line growth inhibition, 384-well format
PROPERTY MEASURED: TGI

MOLECULE: Cc1cc(-c2nc(-c3ccc(OC(F)(F)F)cc3)no2)nn1Cc1ccnc(N2CCN(C3CC3)CC2)c1
PROPERTY MEASURED: TGI
MEASUREMENT: 2.24 µM
--
MOLECULE: Cn1cc(C[C@@H](N)C(=O)O)c2ccccc21
PROPERTY MEASURED: TGI
MEASUREMENT: > 100 µM
--
MOLECULE: O=C1c2ccccc2C(=O)C(Cl)C1Cl (stereo not given)
PROPERTY MEASURED: TGI
MEASUREMENT: 9.5 µM
--
MOLECULE: CC[C@H](C)n1cc(C)c2c(C(=O)NCc3c(C)cc(C)[nH]c3=O)cc(-c3ccc(N4CCNCC4)nc3)cc21
PROPERTY MEASURED: TGI
MEASUREMENT: 2.99 µM

Sure, the documented TGI for C=CCN(/C=C1\C(=O)O[C@H](COC)[C@@]2(C)C1=C(O)C(=O)C1=C2[C@H](OC(C)=O)C[C@]2(C)C(=O)CC[C@@H]12)CC=C is 14.7 µM

----------
- System: COLO 205 colon
- METHOD NOTES: NCI tumour cell line growth inhibition, 384-well format
PROPERTY MEASURED: GI50

Recorded GI50, per entry:
MOLECULE: CNC(C)C(=O)N[C@H](C(=O)N1CCC[C@@H]1CN(CCc1ccccc1)C(=O)C(F)(F)F)[C@H](C)OCC#CC#CCO[C@H](C)[C@H](NC(=O)[C@H](C)NC)C(=O)N1CCC[C@H]1CN(CCc1ccccc1)C(=O)C(F)(F)F (some centres undefined)
GI50: 1.69 µM

MOLECULE: CC[C@H](C)n1cc(C)c2c(C(=O)NCc3c(C)cc(C)[nH]c3=O)cc(-c3ccc(N4CCNCC4)nc3)cc21
GI50: 1.71 µM

MOLECULE: O=C1c2ccccc2C(=O)C(Cl)C1Cl (centres undefined)
GI50: 1.84 µM

# ---- query molecule ----
Sure, the documented GI50 for C=CCN(/C=C1\C(=O)O[C@H](COC)[C@@]2(C)C1=C(O)C(=O)C1=C2[C@H](OC(C)=O)C[C@]2(C)C(=O)CC[C@@H]12)CC=C is 0.793 µM
